Biological target: recombinant human SK (Homo sapiens, UniProt Q9NYA1)
Construct: GST (glutathione-S-transferase) (N); made in house; host or cells: bacteria (pGEX bacterial expression vector)
Sequence (Q9NYA1 whole entry): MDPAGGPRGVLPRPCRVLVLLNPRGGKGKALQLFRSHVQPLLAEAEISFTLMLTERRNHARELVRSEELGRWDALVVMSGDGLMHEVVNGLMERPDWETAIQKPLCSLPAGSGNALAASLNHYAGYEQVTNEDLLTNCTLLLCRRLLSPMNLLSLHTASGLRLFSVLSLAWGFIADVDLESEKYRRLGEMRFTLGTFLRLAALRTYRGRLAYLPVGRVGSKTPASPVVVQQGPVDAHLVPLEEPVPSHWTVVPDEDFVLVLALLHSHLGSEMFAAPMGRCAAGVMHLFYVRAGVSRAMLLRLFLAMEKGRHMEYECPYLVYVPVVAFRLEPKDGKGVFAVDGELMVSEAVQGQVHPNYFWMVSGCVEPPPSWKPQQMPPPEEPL
Assay: Recombinant human SK activity assay ([3H]sphingosine to [3H]S1P)
Type: biochemical
Settings: Human SK incubated with 6 μg/mL of compound; percentage of SK activity inhibited
Quantity name: inhibition at 6 µg/mL (%)
# number only, unit % dropped from output

# annotated cases, reported inhibition at 6 µg/mL shown
Inquiry: For O=C(NCc1ccc(F)c(C(F)(F)F)c1)C12CC3CC(C1)CC(c1ccc(Cl)cc1)(C3)C2 [A24] , what is its reported inhibition at 6 µg/mL?
Reply text: 20

Inquiry: Another molecule to check: O=C(NC1CC1)C12CC3CC(C1)CC(c1ccc(Cl)cc1)(C3)C2 [A2]
Reply text: 0

Inquiry: Another molecule to check: N#CCc1ccc(NC(=O)C23CC4CC(CC(C4)C2)C3)cc1 [A10]
Reply text: 3

Inquiry: Another molecule to check: O=C(NCCc1ccc(Br)cc1)C12CC3CC(C1)CC(c1ccc(Cl)cc1)(C3)C2 [A39]
Reply text: 19

Next:
Inquiry: For NCc1c(Cl)c(Cl)c(Cl)c(CNC(=O)C23CC4CC(C2)CC(c2ccc(Cl)cc2)(C4)C3)c1Cl [A27] , what is its reported inhibition at 6 µg/mL?
Reply text: 50

Source of measurements: patent US20120122870A1
